# Tested on: Staphylococcus epidermidis
# Experiment: Antibacterial activity against methicillin-resistant Staphylococcus epidermidis ATCC 35984 assessed as biofilm eradication incubated for 24 hrs by CBD assay
# Format: functional
# Assay context: Staphylococcus epidermidis, ATCC 35984, 24 h
Measure name: log10 MBC (log10 of the value in µM)

Molecule: Oc1ccc(I)c2nc3cc(Cl)c(Cl)cc3nc12
log10 MBC: 0.97

Molecule: Oc1ccc(Br)c2nc3cc(Cl)c(Cl)cc3nc12
log10 MBC: 1.57

Molecule: CCCCc1cc(Br)c(O)c2nc3ccccc3nc12
log10 MBC: 1.07

Molecule: Oc1c(Br)cc(Br)c2nc3cc(Br)c(Br)cc3nc12
log10 MBC: 0.19

Molecule: Oc1c(Br)cc(Cl)c2nc3ccccc3nc12
log10 MBC: 1.07

Molecule: Oc1c(Br)cc(I)c2nc3ccccc3nc12
log10 MBC: 1.07

Molecule: Oc1c(Br)cc(I)c2nc3cc(Cl)c(Cl)cc3nc12
log10 MBC: 0.19

Molecule: O=C(O)CN(CCN(CC(=O)O)CC(=O)O)CC(=O)O
log10 MBC: 3.00

Molecule: Cc1ccc2c(Br)cc(Br)c(O)c2n1
log10 MBC: 0.97

Molecule: N#CC(C#N)=NNc1cccc(Cl)c1 [CARBONYL CYANIDE M-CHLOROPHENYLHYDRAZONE]
log10 MBC: 1.50

Molecule: Oc1c(Cl)cc(Br)c2nc3ccccc3nc12
log10 MBC: 1.50

Molecule: Oc1c(Cl)cc(Br)c2nc3cc(Br)c(Br)cc3nc12
log10 MBC: 0.19
